Reference for the values: the RNAGym collection of RNA variant scans (doi:10.1093/nar/gkz1192)

B1: CPEB3 Ribozyme (parent)
chain: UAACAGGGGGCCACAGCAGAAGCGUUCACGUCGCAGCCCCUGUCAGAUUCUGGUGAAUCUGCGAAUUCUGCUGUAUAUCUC

# Variants of: B1
# MEASUREMENT PROTOCOL: self-cleavage, relative activity (ratio to wild type); higher = more cleavage; in vitro, sequencing
Recorded self-cleavage by entry
Answer with a number only.

G9A U43G ... 0.22
A77U U80A ... 1.18
C12A U67C ... 0.33
C34U G36U ... 0.14
U43A U51C ... 0.88
A3C U25G ... 0.55
C62A U69A ... 0.31
A57G C81U ... 1.13

# lookup: self-cleavage of C39U U69A
0.44

# lookup: self-cleavage of A28G U67C
0.17

# lookup: self-cleavage of "C27A"
0.3
